Target: Activated CDC42 kinase 1 (Homo sapiens) (UniProt Q07912)
Sequence (Q07912 whole entry, looked up): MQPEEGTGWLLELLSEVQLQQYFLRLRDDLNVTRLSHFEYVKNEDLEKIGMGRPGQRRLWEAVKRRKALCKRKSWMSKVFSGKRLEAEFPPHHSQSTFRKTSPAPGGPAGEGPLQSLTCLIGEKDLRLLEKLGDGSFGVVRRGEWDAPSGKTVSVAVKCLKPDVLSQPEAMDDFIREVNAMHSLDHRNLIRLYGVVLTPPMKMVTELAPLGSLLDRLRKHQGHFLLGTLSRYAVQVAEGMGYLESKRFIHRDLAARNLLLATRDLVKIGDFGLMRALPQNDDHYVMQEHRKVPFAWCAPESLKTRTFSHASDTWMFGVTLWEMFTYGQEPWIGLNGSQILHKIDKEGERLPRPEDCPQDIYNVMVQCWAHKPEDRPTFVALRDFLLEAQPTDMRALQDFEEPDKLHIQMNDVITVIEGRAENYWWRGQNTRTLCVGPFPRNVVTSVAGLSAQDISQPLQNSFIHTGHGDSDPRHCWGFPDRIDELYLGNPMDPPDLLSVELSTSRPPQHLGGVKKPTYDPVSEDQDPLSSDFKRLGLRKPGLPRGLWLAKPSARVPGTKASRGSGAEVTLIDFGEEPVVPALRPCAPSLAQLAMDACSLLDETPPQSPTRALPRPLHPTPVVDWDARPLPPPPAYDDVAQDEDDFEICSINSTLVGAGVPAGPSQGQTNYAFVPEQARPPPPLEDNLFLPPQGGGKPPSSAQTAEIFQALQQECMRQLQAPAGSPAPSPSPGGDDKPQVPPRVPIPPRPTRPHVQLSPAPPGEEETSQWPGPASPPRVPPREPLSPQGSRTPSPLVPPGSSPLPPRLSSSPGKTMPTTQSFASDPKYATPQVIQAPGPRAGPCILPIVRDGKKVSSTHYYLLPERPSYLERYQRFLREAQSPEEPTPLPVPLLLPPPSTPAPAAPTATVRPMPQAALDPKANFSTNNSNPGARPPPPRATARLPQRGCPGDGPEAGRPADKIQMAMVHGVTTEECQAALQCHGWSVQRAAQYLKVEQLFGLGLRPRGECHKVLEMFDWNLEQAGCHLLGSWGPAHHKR
Conditions: at 1 µM
Description: GSK_PKIS: TNK2 mean inhibition at 1 uM [Nanosyn]
Binary classification by inhibition, with 0.7% as an inclusive lower bound for y; all other cases are n.

Use the examples below as a reference point.
CCCNc1cccc(-n2ncc3c(N/N=C/c4ccncc4)ncnc32)c1: y
COc1cc(N2CCN(C(C)C)CC2)ccc1Nc1nc(Nc2cccc3ncccc23)c2cc[nH]c2n1: y
COc1ccccc1-c1cc(/C=C2\C(=O)Nc3ncc(Br)cc32)cc(Br)c1O: n
CS(=O)(=O)Nc1ccc(-c2ccc3c(NC(=O)C4CC4)n[nH]c3c2)cc1: y

Please examine the following record next.
Quick check, inhibition >= 0.7%? CCN1CCC(C(=O)Nc2n[nH]c3nnc(-c4cccc(F)c4F)cc23)CC1
n

Data provenance: ChEMBL document CHEMBL1961873
